Just for reference, paper PMC9616902 is where these values come from.

S0: recorded values
- tested_on: Human ROCK1 protein (amino acids 1–477) (Homo sapiens)
- Construct: purchased Carna Biosciences 01-109
- Sequence (Q13464 1-477): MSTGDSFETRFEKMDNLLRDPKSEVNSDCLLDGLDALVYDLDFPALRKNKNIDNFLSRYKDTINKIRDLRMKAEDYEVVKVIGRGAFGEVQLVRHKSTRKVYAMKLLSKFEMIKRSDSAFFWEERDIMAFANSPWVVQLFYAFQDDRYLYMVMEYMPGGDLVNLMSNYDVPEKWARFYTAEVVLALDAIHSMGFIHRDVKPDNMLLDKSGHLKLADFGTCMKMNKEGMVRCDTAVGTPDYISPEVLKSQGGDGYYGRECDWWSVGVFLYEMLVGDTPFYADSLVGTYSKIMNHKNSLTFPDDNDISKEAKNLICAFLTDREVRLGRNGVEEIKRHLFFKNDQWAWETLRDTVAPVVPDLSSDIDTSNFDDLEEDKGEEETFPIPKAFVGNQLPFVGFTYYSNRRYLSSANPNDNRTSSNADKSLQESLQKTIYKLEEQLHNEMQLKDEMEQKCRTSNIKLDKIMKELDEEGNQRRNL
- assay_protocol: ROCK1 HTRF KinEASE-STK S2 biochemical activity assay
- experimental_conditions: 2021-01-18 ROCK1 HTRF (n=2) 665/620 Activity [%]; curve fit parameter
Report only the number, with the unit % understood.

The cases that follow already have their S0 on record.
compound | recorded_metric | uom | val
O=C(NCC1(Cc2ccccc2)CC1)c1ccc(-c2cn[nH]c2)cc1 | S0 | % | -6.676
CC(CNC(=O)c1ccc(-c2cn[nH]c2)cc1)N1CCc2ccccc21 (stereo not drawn) | S0 | % | -0.7898

Suppose we examine the compound CSc1cccc(F)c1CNC(=O)c1ccc(-c2cn[nH]c2)cc1 ; what S0 value has been reported?
3.5105

Suppose we examine the compound CC(Cc1ccc(F)cc1F)NC(=O)c1ccc(-c2cn[nH]c2)cc1 (racemic) ; what S0 value has been reported?
-2.159

Suppose we examine the compound COCc1cccc(CC(=O)Nc2ccc(-c3cn[nH]c3)cc2)c1 ; what S0 value has been reported?
-5.692

Suppose we examine the compound CC(NC(=O)c1ccc(-c2cn[nH]c2)cc1)C1CC1c1ccccc1 (mixture of isomers) ; what S0 value has been reported?
3.31

====

- tested_on: Human ROCK1 protein (amino acids 1–477) (Homo sapiens)
- Construct: purchased Carna Biosciences 01-109
- assay_protocol: ROCK1 HTRF KinEASE-STK S2 biochemical activity assay
- experimental_conditions: 2021-01-18 ROCK1 (n=3) 665/620; no unit printed (values equal the uM IC50 of the 7th table x 1e-6); read-out: qAC50
IC50: recorded values
Report only the number, with the unit µM understood.

The cases that follow already have their IC50 on record.
compound | val
CSc1cccc(F)c1CNC(=O)c1ccc(-c2cn[nH]c2)cc1 | 0.171
O=C(NCC1(Cc2ccccc2)CC1)c1ccc(-c2cn[nH]c2)cc1 | 0.147
CC(Cc1ccc(F)cc1F)NC(=O)c1ccc(-c2cn[nH]c2)cc1 (racemic) | 0.121
CC(NC(=O)c1ccc(-c2cn[nH]c2)cc1)C1CC1c1ccccc1 (mixture of isomers) | 0.14
COCc1cccc(CC(=O)Nc2ccc(-c3cn[nH]c3)cc2)c1 | 0.0806

API: the following record is the query input.
Suppose we examine the compound CC(CNC(=O)c1ccc(-c2cn[nH]c2)cc1)N1CCc2ccccc21 (stereo not drawn) ; what IC50 value has been reported?
0.101

====

IC50: recorded values
- tested_on: Human ROCK1 protein (amino acids 1–477) (Homo sapiens)
- Construct: purchased Carna Biosciences 01-109
- assay_protocol: ROCK1 HTRF KinEASE-STK S2 biochemical activity assay
- experimental_conditions: 2021-01-18 ROCK1 HTRF (n=2) 665/620; no unit printed (values equal the uM IC50 of the 7th table x 1e-6); read-out: qAC50
Report only the number, with the unit µM understood.

molecule | val
CSc1cccc(F)c1CNC(=O)c1ccc(-c2cn[nH]c2)cc1 | 0.17
CC(Cc1ccc(F)cc1F)NC(=O)c1ccc(-c2cn[nH]c2)cc1 (racemic) | 0.136
O=C(NCC1(Cc2ccccc2)CC1)c1ccc(-c2cn[nH]c2)cc1 | 0.15
CC(CNC(=O)c1ccc(-c2cn[nH]c2)cc1)N1CCc2ccccc21 (stereo not drawn) | 0.1
CC(NC(=O)c1ccc(-c2cn[nH]c2)cc1)C1CC1c1ccccc1 (mixture of isomers) | 0.157

API: the following record is the query input.
Suppose we examine the molecule COCc1cccc(CC(=O)Nc2ccc(-c3cn[nH]c3)cc2)c1 ; what IC50 value has been reported?
0.0814
